Reference for the values: patent US7115754B2

Assignment: determine reported IC50 for the given compounds.
- targetOrTestSystem: hOT receptor (HEK293EBNA cells expressing the hOT receptor) (Homo sapiens)
- Sequence (P30559 1-389): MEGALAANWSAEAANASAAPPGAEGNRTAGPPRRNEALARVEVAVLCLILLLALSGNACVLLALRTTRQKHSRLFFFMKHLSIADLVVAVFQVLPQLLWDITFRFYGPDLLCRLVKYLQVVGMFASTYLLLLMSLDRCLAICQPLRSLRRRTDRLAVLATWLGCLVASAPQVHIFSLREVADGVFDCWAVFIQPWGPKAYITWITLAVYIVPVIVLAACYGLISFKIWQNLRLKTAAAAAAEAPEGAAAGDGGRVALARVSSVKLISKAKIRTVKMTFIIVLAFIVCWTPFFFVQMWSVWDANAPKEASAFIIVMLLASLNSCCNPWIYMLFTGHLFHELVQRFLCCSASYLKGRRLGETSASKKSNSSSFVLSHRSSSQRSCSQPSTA
- assayOverview: Functional assay No. 1: inhibition of oxytocin mediated Ca2+-mobilization by FLIPR
- conditionDescription: OT 40 nM, fluo-4, read-out: Inhibition of Ca2+ mobilisation, hOT-R IC50
# output: bare number, implied unit nM

Query string: GET /values?readout=IC50&system=hOT receptor (HEK293EBNA cells expressing the hOT receptor) (Homo sapiens)&item= "CON=C1C[C@@H](CO)N(C(=O)c2ccc(-c3ccccc3)cc2)C1"
Result string: 90

Query string: GET /values?readout=IC50&system=hOT receptor (HEK293EBNA cells expressing the hOT receptor) (Homo sapiens)&item= "CO/N=C1/C[C@@H](CO)N(C(=O)c2ccc(-c3ccccc3)cc2)C1"
Result string: 10
